Form field: growth (one value per entry).
- Tested on: MOLT-4 leukemia
- experimental protocol: NCI-60 one-dose screen, 48 h (100 = growth as untreated, 0 = no growth, -100 = all killed)
- condition context: 10 µM unless noted
This is part of a sample that, as a whole, favours compounds with a hit. Of some 83,000 tested, about 20% had one in any assay.
Answer with a number only, understood to be in %.

Consider the worked cases shown below.
CCCCC/C(=C\c1ccccc1)C1OC(C)C(C)O1 (stereo not given) = 110
Cc1nnc2nc(N)[nH]n2c1=O = 74.7

Exercise: State measured growth of the molecule Cc1oc(-c2ccccc2Cl)cc1C(=O)Nc1ccc(S(N)(=O)=O)cc1 with MOLT-4 leukemia.
Solution: 96.3

Exercise: State measured growth of the molecule Nc1c2c(nc3ccc(Cl)cc13)CC(c1ccccc1)CC2=O (stereo not given) with MOLT-4 leukemia.
Solution: 51

Exercise: State measured growth of the molecule COC(=O)[C@]12CC[C@@H](C(/C=C/c3cccnc3)=N/O)[C@@H]1[C@H]1CC[C@@H]3[C@@]4(C)CC(=C/c5cccnc5)/C(=N/O)C(C)(C)[C@@H]4CC[C@@]3(C)[C@]1(C)CC2 with MOLT-4 leukemia.
Solution: 2.12

----------
- System: SNB-19 CNS
- experimental protocol: NCI-60 one-dose screen, 48 h
- condition context: 10 µM unless noted
About 83,000 compounds went through this panel and 20% of them were active in at least one assay; those are over-represented in the sample as a whole. Calls of active or inactive are those of the source. How the source made its calls: active means growth percent below 10; inactive means the rest.
Pick from T for active, F for inactive when you respond.

Past entries and their recorded results:
CC(=O)O[C@H]1CC[C@]2(C)[C@H]3C(=O)C=C4[C@@H]5C[C@](C)(C(=O)N6CCCNCC6)CC[C@]5(C)CC[C@@]4(C)[C@]3(C)CC[C@H]2C1(C)C = T
NC(N)=N/N=C/c1ccc(-c2ccc(-c3ccc(Cl)cn3)s2)cc1 = F
COC(=O)C(Cc1ccccc1)n1cc(COc2nc(Cl)nc(Nc3ccc(Cl)cc3)n2)nn1 (centres undefined) = F

Exercise: Hi, sorry to bother you, what did the test record for Nc1nc(N)c2nc3c(nc2n1)CCCCCCCCCC3 ?
Solution: F

Exercise: Hi, sorry to bother you, what did the test record for COc1ccc(C2C(C#N)=C(N)Oc3c2sc2c(F)cccc32)cc1 (centres undefined) ?
Solution: F

----------
- System: CCRF-CEM leukemia
- experimental protocol: NCI-60 one-dose screen, 48 h (100 = growth as untreated, 0 = no growth, -100 = all killed)
- condition context: 10 µM unless noted
The panel holds about 83,000 compounds, 20% with a hit somewhere; the sample as a whole holds those more often.
Form field: growth (one value per entry).
Answer with a number only, understood to be in %.

Consider the worked cases shown below.
CC(=O)Nc1cc(F)cc(C(F)(F)F)c1Cl = 102
C[C@@H](C(=O)O)c1ccc2c3cc(Cl)ccc3n(Cc3cc(=O)oc4ccc(Cl)cc34)c2c1 = 105
NCCn1cc(-c2nc(-c3c[nH]c4ncccc34)cs2)c2cc(Br)ccc21 = 60
Cn1c(=O)c2c(ncn2CC(=O)Nc2ccc(S(N)(=O)=O)cc2)n(C)c1=O = 97.5
Cc1csc(Nc2nc(-c3ccc(Cl)cc3)nc(C(Cl)(Cl)Cl)n2)n1 = 90

Exercise: // fetch growth given entry Nc1ccccc1NC(=O)c1ccc(CN2CCC/C(=C\c3ccccn3)C2=O)cc1
Solution: 16.7

Exercise: // fetch growth given entry CC(C)(C)c1[nH]nc2c1C(c1cc3ccccc3[nH]c1=O)Nc1cc(C(=O)OCc3ccccc3)ccc1N2 (stereo not drawn)
Solution: 37.9

----------
- Test system: NCI-H522 lung
- experimental protocol: NCI-60 one-dose screen, 48 h (100 = growth as untreated, 0 = no growth, -100 = all killed)
- condition context: 10 µM unless noted
- Procedure: Growth inhibition of the NCI-H522 human Non-Small Cell Lung tumor cell line is measured as a screen for anti-cancer activity. Cells are grown in 96 well plates and exposed to the test compound for 48 hours. Compounds are tested at a single concentration, which is 10^-5 M for most compounds. The reported endpoint is percent growth (GI% or GIPRCNT), where numbers from 0 - 100% represent growth inhibition, and numbers from -100% - 0 represent cell death. […]
This is part of a sample that, as a whole, favours compounds with a hit. Of some 83,000 tested, about 20% had one in any assay.
Form field: growth (one value per entry).
Answer with a number only, understood to be in %.

CCCCN1CCCCn2c1nc1c2c(=O)n(C)c(=O)n1C = 90.1
C=C(C)[C@@H]1CC[C@]2(C)[C@H](CC=C3[C@@H]4CC(C)(C)CC[C@]4(C=O)CC[C@]32C)[C@@]1(C)CCCN = 91.8
C=C(C)[C@@H]1CC[C@]2(CN)CC[C@]3(C)[C@H](CC[C@@H]4[C@@]5(C)CCC(=O)NC(C)(C)[C@@H]5CC[C@]43C)[C@@H]12 = 88
Cc1cc(C=O)c(C)c2c1[nH]c1ccccc12 = 88.5

Exercise: // fetch growth given entry Brc1ccc2[nH]cc(-c3nc(-c4c[nH]c5ncccc45)cs3)c2c1
Solution: 25

----------
- System: T-47D breast
- experimental protocol: NCI-60 one-dose screen, 48 h (100 = growth as untreated, 0 = no growth, -100 = all killed)
- condition context: 10 µM unless noted
The panel holds about 83,000 compounds, 20% with a hit somewhere; the sample as a whole holds those more often.
Form field: growth (one value per entry).
Answer with a number only, understood to be in %.

COc1cccc(-c2nn(-c3ccccc3)cc2-c2ccnc(NCCCNS(=O)(=O)c3ccc(Cl)cc3)c2)c1 = 14.2
COc1cccc(-c2nn(-c3ccccc3)cc2-c2ccnc(NCCCNS(=O)(=O)c3ccccc3)c2)c1 = -4.99

Exercise: // fetch growth given entry C[C@H]1[C@@H]2[C@H]3CC[C@@H]4[C@@]5(C)Cc6c([nH]c7ccccc67)C(C)(C)[C@@H]5CC[C@@]4(C)[C@]3(C)CC[C@]23CO[C@]1(C)[C@@H](C(=O)/C=C/c1ccccn1)C3
Solution: 65

----------
- Tested on: SF-268 CNS
- experimental protocol: NCI-60 one-dose screen, 48 h
- condition context: 10 µM unless noted
The panel holds about 83,000 compounds, 20% with a hit somewhere; the sample as a whole holds those more often. Calls of active or inactive are those of the source. Rule for the calls: active = growth percent below 10; inactive = the rest.
Pick from active, inactive when you respond.

Past entries and their recorded results:
CC1(C)NC2=C(C(Nc3cccnc3)N1)C(c1ccc([N+](=O)[O-])cc1)C(C(=O)c1ccc(N=[N+]=[N-])cc1)O2 (centres undefined) = inactive
C/C(=N\Nc1cc(C)c2ccccc2n1)c1ccccn1 = active

Exercise: Hi, sorry to bother you, what did the test record for Fc1ccc2c(c1)c(-c1nc(-c3c[nH]c4ncccc34)cs1)cn2CCCN1CCCCC1 ?
Solution: inactive

Exercise: Hi, sorry to bother you, what did the test record for CCN1CCN(C(=O)[C@@]2(C)CC[C@]3(C)CC[C@]4(C)C(=CC(=O)[C@@H]5[C@@]6(C)CC[C@H](OC7C[C@@H](O)[C@@H](O)C(C)O7)C(C)(C)[C@@H]6CC[C@]54C)[C@@H]3C2)CC1 (some centres undefined) ?
Solution: inactive

----------
- System: MALME-3M melanoma
- experimental protocol: NCI-60 one-dose screen, 48 h (100 = growth as untreated, 0 = no growth, -100 = all killed)
- condition context: 10 µM unless noted
Compounds without any hit were thinned out: in the full panel of roughly 83,000, 20% have a hit.
Form field: growth (one value per entry).
Answer with a number only, understood to be in %.

Consider the worked cases shown below.
COC(=O)[C@]12CC[C@@H](C)[C@H](C)[C@@H]1C1=CC[C@@H]3[C@@]4(C)CC(=O)[C@H](OC(=O)c5ccco5)[C@@]5(C)COC(=C45)C[C@@]3(C)[C@]1(C)CC2 = 21.9
O=C1CNCCN1 = 104
COc1cc2c(cc1-c1c(C)noc1C)ncc1nc(C3CCC(F)(F)CC3)n([C@@H](C)COC(F)F)c12 = 76.1

Read the next record carefully.
Exercise: // fetch growth given entry CCN(CC)CCCCCCNc1ccnc2cc(Cl)ccc12
Solution: 99.6

----------
Form field: growth (one value per entry).
- Test system: SN12C renal
- experimental protocol: NCI-60 one-dose screen, 48 h (100 = growth as untreated, 0 = no growth, -100 = all killed)
- condition context: 10 µM unless noted
About 83,000 compounds went through this panel and 20% of them were active in at least one assay; those are over-represented in the sample as a whole.
Answer with a number only, understood to be in %.

Consider the worked cases shown below.
Cc1ccsc1-c1ccc2c(c1)COC2(CCCN(C)C)c1ccc(F)cc1 (stereo not drawn) = 56.7
COc1ccc2nc(-c3cc(-c4cc(OC)c(OC)c(OC)c4)n[nH]3)[nH]c2c1 = 21

Exercise: State measured growth of the compound COc1ccc2c(c1)c(-c1nc(-c3cn(C)c4ncccc34)cs1)cn2CCN with SN12C renal.
Solution: 76.3

Source of measurements: PubChem BioAssay (NCI)
